experiment notes: in vitro
measurement setup: Syrian hamster (Mesocricetus auratus)
Values of CC50 strictly less than 10 µM map to fulfilled, and values of at least 10 µM map to not fulfilled.

> print(dat)
                                 smiles.str  class.assignment
1       S=C(NCCc1c[nH]c2ccccc12)Nc1ccccc1Cl     not fulfilled
2  FC(F)(F)c1cccc(NC(=S)NCCc2c[nH]c3ccccc23)c1         fulfilled
3     S=C(NCCc1c[nH]c2ccccc12)Nc1cccc(Cl)c1         fulfilled
4    Cc1ccc(Cl)cc1NC(=S)NCCc1c[nH]c2ccccc12     not fulfilled
5         S=C(NCCc1c[nH]c2ccccc12)Nc1ccccc1     not fulfilled
6          C=C(C)CNC(=S)NCCc1c[nH]c2ccccc12     not fulfilled
7     S=C(NCCc1c[nH]c2ccccc12)Nc1ccc(Cl)cc1     not fulfilled
8       S=C(NCCc1ccccc1)NCCc1c[nH]c2ccccc12     not fulfilled

====

As an illustration, consider measured MIC for compounds on M. luteus ATCC 9341.
readout type: MIC (µg/mL)

> print(dat)
                                   compound  display.unit  observed
1  O=C(O)c1cn(C2CC2)c2cc(N3CCNCC3)c(F)cc2c1=O [Ciprofloxacin, reference compound]         µg/mL      0.25
2  S=C(NCCc1c[nH]c2ccccc12)Nc1ccc(Cl)c(Cl)c1 [Compound 6]         µg/mL      12.5
3  S=C(NCCc1c[nH]c2ccccc12)Nc1ccccc1Br [Compound 15]         µg/mL       200
4  C=C(C)CNC(=S)NCCc1c[nH]c2ccccc12 [Compound 19]         µg/mL       200
5  S=C(NCCc1c[nH]c2ccccc12)Nc1cccc(Cl)c1 [Compound 14]         µg/mL       200

====

experiment notes: in vitro
measurement setup: human
readout type: CC50 (µM)

> print(dat)
                                   compound  display.unit  qualifier  observed
1  FC(F)(F)c1cccc(NC(=S)NCCc2c[nH]c3ccccc23)c1 [Compound 24]            µM          =        44
2  Fc1ccccc1NC(=S)NCCc1c[nH]c2ccccc12 [Compound 11]            µM          =        48
3  C=C(C)CNC(=S)NCCc1c[nH]c2ccccc12 [Compound 19]            µM          >       100
4  C=CCNC(=S)NCCc1c[nH]c2ccccc12 [Compound 18]            µM          >       100
5  S=C(NCCc1c[nH]c2ccccc12)Nc1ccc(Cl)cc1 [Compound 4]            µM          =        45
6  S=C(NCCc1c[nH]c2ccccc12)Nc1ccccc1Cl [Compound 13]            µM          =        47

====

System: MT-4 cells
readout type: CC50 (µM)

> print(dat)
                                 smiles.str  display.unit  observed
1  Cc1cn([C@H]2C[C@H](N=[N+]=[N-])[C@@H](CO)O2)c(=O)[nH]c1=O            µM        45

====

Tested on: S. epidermidis (MRSE)
experiment notes: MIC against hospital strains
measurement setup: Staphylococcus epidermidis, hospital S. epidermidis MRSE strain 434/11
readout type: MIC (µg/mL)

> print(dat)
                                   molecule  readout.type  display.unit  observed
1          C=C(C)CNC(=S)NCCc1c[nH]c2ccccc12           MIC         µg/mL      12.5
2  O=C(O)c1cn(C2CC2)c2cc(N3CCNCC3)c(F)cc2c1=O [Ciprofloxacin, reference compound]           MIC         µg/mL        50
3       S=C(NCCc1c[nH]c2ccccc12)Nc1ccccc1Br           MIC         µg/mL        50
4     S=C(NCCc1c[nH]c2ccccc12)Nc1cccc(Cl)c1           MIC         µg/mL        25
5  S=C(NCCc1c[nH]c2ccccc12)Nc1ccc(Cl)c(Cl)c1           MIC         µg/mL      12.5

====

experiment notes: in vitro
measurement setup: Syrian hamster (Mesocricetus auratus)
Please use true (1) for CC50 under 20 µM and false (0) for everything else, ties included.

> print(dat)
                               smiles.str  class.assignment
1  Cc1ccc(NC(=S)NCCc2c[nH]c3ccccc23)cc1Cl          true (1)
2  O=C(NC(=S)NCCc1c[nH]c2ccccc12)c1ccccc1         false (0)
3    Fc1cccc(NC(=S)NCCc2c[nH]c3ccccc23)c1          true (1)
4    S=C(NCCc1c[nH]c2ccccc12)Nc1ccc(I)cc1          true (1)
5           C=CCNC(=S)NCCc1c[nH]c2ccccc12         false (0)
6     S=C(NCCc1c[nH]c2ccccc12)Nc1ccccc1Br         false (0)

====

experiment notes: Cytotoxicity, MTT method
measurement setup: cattle (Bos taurus)
readout type: CC50

molecule	readout type	observed
Cc1ccc(NC(=S)NCCc2c[nH]c3ccccc23)cc1	CC50	> 100 µM
C[C@@]1(O)[C@H](O)[C@@H](CO)O[C@H]1n1cnc2c(=O)[nH]c(N)nc21 [2′-C-methyl-guanosine, 2′-C-methylguanosine, reference compound]	CC50	> 10 µM
CNC(=S)NCCc1c[nH]c2ccccc12	CC50	> 100 µM
COc1ccc(NC(=S)NCCc2c[nH]c3ccccc23)cc1	CC50	> 100 µM
CCNC(=S)NCCc1c[nH]c2ccccc12	CC50	> 100 µM

====

experiment notes: Cytotoxicity, MTT method
measurement setup: Syrian hamster (Mesocricetus auratus)

compound	CC50
C[C@@]1(O)[C@H](O)[C@@H](CO)O[C@H]1n1cnc2c(=O)[nH]c(N)nc21 [2′-C-methyl-guanosine, 2′-C-methylguanosine, reference compound]	> 10 µM
CCNC(=S)NCCc1c[nH]c2ccccc12	> 100 µM
CNC(=S)NCCc1c[nH]c2ccccc12	> 100 µM

====

experiment notes: in vitro
measurement setup: human
Measured CC50 of individual entries
readout type: CC50 (µM)

> print(dat)
                                    compound  qualifier  observed
 1  O=C1Nc2ccc(Cl)cc2[C@@](C#CC2CC2)(C(F)(F)F)O1 [Efavirenz]          =        40
 2  S=C(NCCc1c[nH]c2ccccc12)Nc1cccc(Cl)c1 [Compound 14]          =        42
 3  Cc1ccnc2c1NC(=O)c1cccnc1N2C1CC1 [Nevirapine]          >       100
 4  CCOC(=O)NC(=S)NCCc1c[nH]c2ccccc12 [Compound 20]          >       100
 5  CCCCc1ccc(NC(=S)NCCc2c[nH]c3ccccc23)c(C)c1 [Compound 27]          =        45
 6  Fc1cccc(NC(=S)NCCc2c[nH]c3ccccc23)c1 [Compound 12]          =        47
 7  Cc1ccc(NC(=S)NCCc2c[nH]c3ccccc23)cc1Cl [Compound 23]          =        44
 8  Fc1ccc(NC(=S)NCCc2c[nH]c3ccccc23)cc1 [Compound 17]          =        44
 9  O=C(NC(=S)NCCc1c[nH]c2ccccc12)c1ccccc1 [Compound 5]          =        38
10  Fc1ccc(NC(=S)NCCc2c[nH]c3ccccc23)cc1Cl [Compound 28]          =        45
11  S=C(NCCc1c[nH]c2ccccc12)NCc1ccccc1 [Compound 10]          =        78

====

Tested on: RSV
experiment notes: microbe, parasite or virus in culture
Assay type: cell-based, human respiratory syncytial virus
measurement setup: human respiratory syncytial virus, Vero 76, read-out: RSV EC50
pEC50: −log10 of the molar value.
Quick reference: pEC50 of the listed items.
readout type: pEC50

> print(dat)
                                    compound  tested.target  observed
 1     COc1ccc(NC(=S)NCCc2c[nH]c3ccccc23)cc1            RSV    < 4.25
 2     S=C(NCCc1c[nH]c2ccccc12)Nc1cccc(Br)c1            RSV    < 4.92
 3     S=C(NCCc1c[nH]c2ccccc12)Nc1cccc(Cl)c1            RSV    < 4.49
 4  O=c1cnn([C@@H]2O[C@H](CO)[C@@H](O)[C@H]2O)c(=O)[nH]1 [6-Aza-uridine, 6-azauridine, reference compound]            RSV      5.85
 5     S=C(NCCc1c[nH]c2ccccc12)Nc1ccc(Cl)cc1            RSV    < 4.26
 6             C=CCNC(=S)NCCc1c[nH]c2ccccc12            RSV    < 4.00
 7       S=C(NCCc1c[nH]c2ccccc12)Nc1ccccc1Cl            RSV    < 4.28
 8         CCOC(=O)NC(=S)NCCc1c[nH]c2ccccc12            RSV    < 4.00
 9      Cc1ccc(NC(=S)NCCc2c[nH]c3ccccc23)cc1            RSV      4.70
10    O=C(NC(=S)NCCc1c[nH]c2ccccc12)c1ccccc1            RSV    < 4.54
11  FC(F)(F)c1cccc(NC(=S)NCCc2c[nH]c3ccccc23)c1            RSV    < 4.80
12  S=C(NCCc1c[nH]c2ccccc12)Nc1ccc(Cl)c(Cl)c1            RSV    < 4.89
13         S=C(NCCc1c[nH]c2ccccc12)NC1CCCCC1            RSV    < 4.85
14       S=C(NCCc1ccccc1)NCCc1c[nH]c2ccccc12            RSV      4.52
15    Cc1ccc(NC(=S)NCCc2c[nH]c3ccccc23)cc1Cl            RSV    < 4.77
16      Fc1cccc(NC(=S)NCCc2c[nH]c3ccccc23)c1            RSV    < 4.22
17        S=C(NCCc1c[nH]c2ccccc12)NCc1ccccc1            RSV    < 4.00
18    Fc1ccc(NC(=S)NCCc2c[nH]c3ccccc23)cc1Cl            RSV    < 4.49
